Tested on: SK-OV-3 ovarian
Assay: NCI tumour cell line growth inhibition, 48 h
REPORTED METRIC: TGI

Example compounds with recorded TGI:
{"COMPOUND": "CC1(C)CN(CCNc2nccc(-c3c(-c4cccc(O)c4)nc4sccn34)n2)S(=O)(=O)N1", "REPORTED RESULT": "> 33.2 µM"}
{"COMPOUND": "Cc1ccc(NC(=O)CCC(=O)C2Cc3ccccc3C2=O)cc1C (stereo not given)", "REPORTED RESULT": "> 100 µM"}

Value lookup for TGI; key = `CN1N=C(c2ccccc2)c2cc(Cl)ccc2N=C1N/N=C/c1ccc(N(C)C)cc1`
> 100 µM

May I ask what TGI has been recorded for `COC(=O)CNC(=O)CSc1nnc(COc2ccc(Cl)cc2)n1-c1ccccc1` ?
> 100 µM

// lookup TGI for `Cc1ccc(NC2=CC(=O)C(=O)c3ccccc32)cc1`
23.5 µM

Could you share which TGI value was measured for `CC(=O)c1cccc(Nc2nc3ccccc3c3[nH]c4ccccc4c23)c1` ?
43.7 µM

# lookup: TGI of `COc1ccc2nc3ccccc3c(NCc3ccccc3)c2c1`
9.08 µM

Suppose we examine the compound `COc1cccc(CCn2c(N)c(C#N)c3ccc([N+](=O)[O-])cc3c2=O)c1` ; what TGI value has been reported?
> 31.6 µM

What does the data say about its TGI? Entry: COC1OC(Cn2cc([N+](=O)[O-])nc2C)C(O)C(O)C1O (stereo not given)
> 100 µM

Any idea what TGI was measured for C/C=C1/C(=Cc2[nH]c(C=c3[nH]/c(=C/C4=NC(=O)C(CC)=C4C)c(C)c3CCC(=O)O)c(CCC(=O)O)c2C)NC(=O)C1C (stereo not given) ?
> 50 µM

Values compiled from PubChem BioAssay (NCI).
